Reference for the values: the supplement of paper PMC11875167

# MEASUREMENT_PROTOCOL: observed amide hydrogen exchange rate constant kobs (stretched exponential fit, FD-normalized) (s^-1); higher = faster H/D exchange (less protection)
# CONDITIONS_USED: pH 3 (pH read); temperature: 20 °C; D2O: 88%
MEASURED_QUANTITY: observed amide hydrogen exchange rate constant kobs
Give only the figure.

The value of observed amide hydrogen exchange rate constant kobs measured for the substance EDLHDMLASLGK turned out to be 0.00199

The value of observed amide hydrogen exchange rate constant kobs measured for the substance SPYQEFTDHLVK turned out to be 0.00116

The value of observed amide hydrogen exchange rate constant kobs measured for the substance LAVNMVPFPR turned out to be 0.000639

The value of observed amide hydrogen exchange rate constant kobs measured for the substance DIFQEIFDK turned out to be 0.00131

The value of observed amide hydrogen exchange rate constant kobs measured for the substance CAADLGLNK turned out to be 0.00234

The value of observed amide hydrogen exchange rate constant kobs measured for the substance TATESFASDPILYRPVAVALDTK turned out to be 0.000776

The value of observed amide hydrogen exchange rate constant kobs measured for the substance NQVAMNPTNTVFDAK turned out to be 0.000774

The value of observed amide hydrogen exchange rate constant kobs measured for the substance EFHLNESGDPSSK turned out to be 0.00132

The value of observed amide hydrogen exchange rate constant kobs measured for the substance ALTSELANAR turned out to be 0.00115

The value of observed amide hydrogen exchange rate constant kobs measured for the substance VSHVSTGGGASLELLEGK turned out to be 0.000818

The value of observed amide hydrogen exchange rate constant kobs measured for the substance GLTSVINQK turned out to be 0.000815

The value of observed amide hydrogen exchange rate constant kobs measured for the substance HQGVMVGMGQK turned out to be 0.00127

The value of observed amide hydrogen exchange rate constant kobs measured for the substance VELLLK turned out to be 0.000604

The value of observed amide hydrogen exchange rate constant kobs measured for the substance MVNHFIAEFK turned out to be 0.00114

The value of observed amide hydrogen exchange rate constant kobs measured for the substance LMIEMDGTENK turned out to be 0.00222

The value of observed amide hydrogen exchange rate constant kobs measured for the substance LAAIAESGVER turned out to be 0.000919

The value of observed amide hydrogen exchange rate constant kobs measured for the substance AFAMIIDK turned out to be 0.000626

The value of observed amide hydrogen exchange rate constant kobs measured for the substance IFGGLDMLAEK turned out to be 0.00145

The value of observed amide hydrogen exchange rate constant kobs measured for the substance DQQEAALVDMVNDGVEDLR turned out to be 0.00161

The value of observed amide hydrogen exchange rate constant kobs measured for the substance DRVTDALNATR turned out to be 0.000789

The value of observed amide hydrogen exchange rate constant kobs measured for the substance DVNAAIATIK turned out to be 0.000675

The value of observed amide hydrogen exchange rate constant kobs measured for the substance AHSSMVGVNLPQK turned out to be 0.000759

The value of observed amide hydrogen exchange rate constant kobs measured for the substance YAVLYQPLFDK turned out to be 0.000677

The value of observed amide hydrogen exchange rate constant kobs measured for the substance VAVLGASGGIGQPLSLLLK turned out to be 0.000683

The value of observed amide hydrogen exchange rate constant kobs measured for the substance MINTDLSR turned out to be 0.000886
